Kindly state TGI for each of the entries shown.
Test system: UACC-257 melanoma
Test: NCI tumour cell line growth inhibition, 48 h

Recorded TGI, per entry:
[
  {
    "compound": "O=Cc1[nH]c(=O)[nH]c(=O)c1C(=O)O",
    "TGI": "> 100 µM"
  },
  {
    "compound": "COC(=O)c1cc2ccc(N)nc2[nH]c1=O",
    "TGI": "> 100 µM"
  },
  {
    "compound": "CC(C)Oc1ccc2cc(-c3nn(CC4CCNCC4)c4ncnc(N)c34)ccc2c1",
    "TGI": "3.98 µM"
  },
  {
    "compound": "Cc1nn(-c2ccccc2)c2c1C(c1ccc(Cl)cc1)NC(=S)N2 (stereo unspecified)",
    "TGI": "> 100 µM"
  }
]

Hi, could you look up TGI for each item in my list?
1. COc1ccc2c(c1)C(=O)c1c-2c(N2CCN(C(=O)CNCCNCCO)CC2)nc2ccccc12
2. N#CCCN(C(=O)Nc1ccccc1)[C@H]1CCCC[C@@H]1N(C(=O)Nc1ccccc1)c1ccccc1

["6.4 µM", "> 100 µM"]
